# measured-target: Streptokinase A (Streptococcus pyogenes serotype M1)
# Sequence (P10520 whole entry): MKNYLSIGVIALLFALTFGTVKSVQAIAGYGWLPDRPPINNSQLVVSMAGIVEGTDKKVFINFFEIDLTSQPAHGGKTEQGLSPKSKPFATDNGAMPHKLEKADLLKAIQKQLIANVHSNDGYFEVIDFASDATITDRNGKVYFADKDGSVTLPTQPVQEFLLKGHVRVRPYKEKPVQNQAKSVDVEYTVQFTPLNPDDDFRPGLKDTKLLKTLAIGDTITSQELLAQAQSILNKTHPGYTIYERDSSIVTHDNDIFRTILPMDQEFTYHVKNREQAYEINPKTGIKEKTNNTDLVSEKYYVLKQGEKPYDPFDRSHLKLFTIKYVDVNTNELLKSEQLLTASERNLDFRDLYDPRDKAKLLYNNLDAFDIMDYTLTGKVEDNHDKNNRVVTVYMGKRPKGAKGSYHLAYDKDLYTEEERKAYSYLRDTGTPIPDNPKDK
# protocol-text: S. pyogenes streptokinase expression inhibitors, potency, dose response, plasminogen activation absorbance, OD405 (AID 1914);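 note: secreted streptokinase activity via plasminogen activation per viability signal from cell pellet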
# Format: functional, Streptococcus pyogenes M1 GAS
Calls of active or inactive are those of the source. Cut-off read from the data, not from the text of the source: actives have a measured EC50 and inactives only a lower limit.
Field: EC50. Provide a value for each of the compounds that follow.

q: # returns recorded EC50 (system: Streptokinase A (Streptococcus pyogenes serotype M1)) for Cc1nn(Cc2ccccc2Cl)c2sc(C(=O)Nc3ccccc3N3CCOCC3)cc12
a: > 150 µM (not active)

q: Identify the measured EC50 of CCOc1ccc(C(=O)N/N=C(\c2ccccc2)c2ccccn2)cc1 for Streptokinase A (Streptococcus pyogenes serotype M1).
a: > 150 µM (not active)

q: Param readout= EC50; system= Streptokinase A (Streptococcus pyogenes serotype M1); entry= O=C(/C(=N/Nc1cccc([N+](=O)[O-])c1)C(=O)C(F)(F)F)c1ccc(Br)cc1 ; returns value.
a: 6.23 µM (active)

q: Notebook: pull reported EC50 for Streptokinase A (Streptococcus pyogenes serotype M1), entry CC(C)(C)c1ccc(CSc2cnn(C(C)(C)C)c(=O)c2Cl)cc1 [PYRIDABEN]
a: 20.8 µM (active)

q: Lab note: need EC50 with Streptokinase A (Streptococcus pyogenes serotype M1) for entry COc1ccc(CCNC(=O)C(=O)Nc2ccc3nc4n(c(=O)c3c2)CCCCC4)cc1OC , please look it up.
a: > 150 µM (not active)

q: GET /values?readout=EC50&system=Streptokinase A (Streptococcus pyogenes serotype M1)&item= NNc1nc(Nc2ccccc2)nc(Nc2ccccc2)n1
a: 23.5 µM (active)

q: Lab note: need EC50 for CC1(C)S[C@@H]2[C@H](NC(=O)COc3ccccc3)C(=O)N2C1C(=O)OCC1CCCCC1 (stereo not given in full) on Streptokinase A (Streptococcus pyogenes serotype M1), anyone have it?
a: > 150 µM (not active)

q: Record CC(C)=CCc1cc([C@@H]2COc3c(ccc4c3C=CC(C)(C)O4)C2)c(O)cc1O : what is its EC50 with Streptokinase A (Streptococcus pyogenes serotype M1)?
a: > 150 µM (not active)

q: Query for Streptokinase A (Streptococcus pyogenes serotype M1): what EC50 does the record show for CCCn1c(NC(=O)c2ccccc2Br)nc2ccccc21 ?
a: > 150 µM (not active)

q: Which EC50 is reported with Streptokinase A (Streptococcus pyogenes serotype M1) for this entry: O=C(/C=C/c1ccccc1)NC(=S)NNC(=O)c1ccco1 ?
a: > 150 µM (not active)

q: Value wanted: EC50 (Streptokinase A (Streptococcus pyogenes serotype M1)) of entry CCCOc1ccc(Cc2c(Cl)nc(SC)nc2N(C)C)cc1
a: 24.5 µM (active)

q: So what EC50 did CCCSc1cc(N2CCCC2)nc(-c2ccccc2)n1 get with Streptokinase A (Streptococcus pyogenes serotype M1)?
a: > 150 µM (not active)

q: EC50 of Cn1c(NC(=O)c2ccccc2)nc2ccccc21 on Streptokinase A (Streptococcus pyogenes serotype M1)?
a: > 150 µM (not active)

q: Lab request: please report EC50 under test system Streptokinase A (Streptococcus pyogenes serotype M1) for Cc1ccc(Cn2c(C(CO)Nc3nc(-c4ccc(F)cc4)cs3)nc3ccccc32)cc1 (stereo not given)
a: > 150 µM (not active)

q: Which EC50 is reported with Streptokinase A (Streptococcus pyogenes serotype M1) for this entry: O/N=C(\c1ccc(Cl)cc1Cl)c1ncc(C(F)(F)F)cc1Cl ?
a: 35.2 µM (active)

q: Entry O=C(c1ccc(Cl)cc1)c1cnc(Nc2ccccc2Cl)s1 , system Streptokinase A (Streptococcus pyogenes serotype M1): what EC50 was measured?
a: > 150 µM (not active)

q: Look up EC50 with Streptokinase A (Streptococcus pyogenes serotype M1) for this compound: O=C1CCSc2ccc(Cl)cc2N1Cc1ccc(Cl)cc1
a: 18.4 µM (active)

q: Which EC50 is reported with Streptokinase A (Streptococcus pyogenes serotype M1) for this entry: COc1cc(NS(=O)(=O)c2ccc(C)cc2)c2ncccc2c1 ?
a: > 150 µM (not active)

q: // map CCOc1ccc(C(=O)NC(=S)N(Cc2ccccc2)Cc2ccccc2)cc1 to recorded EC50 (system: Streptokinase A (Streptococcus pyogenes serotype M1))
a: > 150 µM (not active)

q: Recall the recorded EC50 for COc1ccc(C2CC(c3cccs3)=NN2C(=O)c2ccc(Br)o2)cc1 (stereo not given) with Streptokinase A (Streptococcus pyogenes serotype M1) and state it.
a: > 150 µM (not active)
